Each recorded value in this set is attributed to ChEMBL document CHEMBL1201862.

- Tested on: PC-3
- experiment: NCI tumour cell line growth inhibition, 48 h
Calls of active or inactive are those of the source. Cut-off read from the data, not from the text of the source: active = GI50 up to about 1.1 µM and inactive = higher.
Outcome (select one): true (1) = active, false (0) = inactive

Could you check what this test reported for COC(=O)c1ccccc1/C=C1\Cc2ccc3c(c2C1=O)CCC3 ?
false (0)

I would be grateful if you could indicate the recorded call for CCO/C=N\C1=C(C#N)SC2=N/C(=C\c3ccco3)C(=O)N21 .
false (0)

So what was the verdict on CN(C)CCCNc1ccc2nnn3c4ccc(O)cc4c(=O)c1c23 in this test?
false (0)

For NCCN(CCN)/[N+]([O-])=N/O , what call appears in the results of this test?
false (0)

***
Which result was noted for this molecule in the test: Cc1cc(C)n(C2=NS(=O)(=O)c3ccccc3N2C)n1
false (0)

Give the logged outcome of this assay for the following molecule: O=C1CCC(=O)N1n1c(Cc2ccccc2)n[nH]c1=O
false (0)

Name the outcome recorded for CC(C)Oc1c(C2(c3ccccc3O)SCCCS2)c(=O)c1=O in the assay.
false (0)

Hi, do you know how CC1CC/C(=C\c2ccc(F)cc2)C2=C1C(c1ccc(F)cc1)N1C(=O)CSC1=N2 (centres undefined) came out in this test?
false (0)

Tell me the assay call for CN1CCC(n2[nH]c(-c3ccccc3)c(Cc3ccccc3)c2=O)CC1 please.
false (0)

Status in this test for N#Cc1cc2c(cc1C#N)/C(=N\c1cccc(N)n1)N/C2=N\c1cccc(N)n1 ?
false (0)

Recorded call for CCC(=O)NCCc1c[nH]c2ccc(OC)cc12 ?
false (0)

---

- System: K562
- experiment: NCI tumour cell line growth inhibition, 48 h
Calls of active or inactive are those of the source. Rule as the data show it: active = GI50 up to about 1.1 µM and inactive = higher.
Hello, when you answer, please use one of the following outcomes: 1 = active, 0 = inactive

# example entries with known answers
Outcome? Brc1ccc(/C(N=N/C(=N\Sc2ccccc2)c2ccc(Br)cc2)=N/Sc2ccccc2)cc1
0

Each molecule tested received a call. Report the one for C[C@]12CCc3nn(-c4ccccc4)nc3C1CC[C@@H]1C2CC[C@]2(C)C(=O)CCC12 (stereo not given in full) .
0

Outcome logged for CC(C)=Cc1cc(CCC/C(C)=C/Cc2c(O)cc(C)c(C(=O)O)c2O)co1 in this assay:
1

# lookup: test call for CCNC(=O)OCC1C2=C(C(=O)C(C)=C(N)C2=O)N2CC3C(N3C)C12OC (stereo not given)
0

Assay outcome for CC1(C)Oc2ccc3c(=O)c(-c4ccccc4)c(-c4ccccc4)oc3c2C1C(=O)O (stereo not given) : what was it?
0

Look up the recorded call for CN(C(=O)Cc1ccccc1)n1cnn(CC(=O)OC(C)(C)C)c1=S in this test.
0

Others:
Call for entry COC(=O)/C=C\[C@@H]1[C@H](C)N1S(=O)(=O)c1ccc(C)cc1 (stereo not given in full) :
0

Lab log entry: CCCCn1c(N)c(-c2nc3ccccc3o2)sc1=S — outcome as called in the assay?
0

Which outcome did this test record for the molecule c1ccc2sc(C3(N4CCCC4)CCCCCC3)cc2c1 ?
0

Write down the call the test reported for this molecule. Item: Cc1c2ccccc2cc2cccc[n+]12
0

---

- Test system: K562
- experiment: NCI tumour cell line growth inhibition, 48 h
Calls of active or inactive are those of the source. Cut-off read from the data, not from the text of the source: active = GI50 up to about 1.1 µM and inactive = higher.
Parameter call: string, one of True for active, False for inactive

# fetch the recorded call for N#C/C(=N/Nc1[nH]cnc1C(N)=O)C(=O)Nc1ccccc1 here
False

I would be grateful if you could indicate the recorded call for C#Cc1c(C)c(/C=C/C(C)=C\C(=O)OC)n(C)c1C .
False

For this compound, state the assay outcome: COc1ccc2[nH]c(C(=O)N3CC(CCl)c4ccc(N)cc43)cc2c1 (stereo unspecified)
True

// outcome(item) with item = Cc1nc2c(c(N3CCN(C)CC3)n1)Cc1ccccc1-2
False

Next:
So what was the verdict on O=C(c1ccccc1)n1cc(/C=C/[N+](=O)[O-])c2ccccc21 in this test?
False

So what was the verdict on CC1(C)Oc2ccccc2[N+]([O-])=C1c1ccccc1 in this test?
False
